Measured target: UBE2N; note: test concentration or dose not given here
Assay overview: reporter assay of Huesken 2005
Condition context: siRNA
Oligonucleotides are given in HELM: sugar(base)linkage, 5' to 3'; d 2'-deoxyribose, r ribose, m 2'-O-methylribose, p phosphate. ss, as = sense and antisense strand
Exercise: state measured normalised inhibition (eCFP-eYFP dual reporter) for each of the substances provided.
Report as a plain number; the unit % is understood.

Query string: Looking for the measured normalised inhibition (eCFP-eYFP dual reporter) of RNA1{r(A)p.r(A)p.r(A)p.r(U)p.r(G)p.r(A)p.r(U)p.r(G)p.r(U)p.r(A)p.r(G)p.r(C)p.r(G)p.r(G)p.r(A)p.r(G)p.r(C)p.r(A)p.r(G)p.d(T)p.d(T)}|RNA2{r(C)p.r(U)p.r(G)p.r(C)p.r(U)p.r(C)p.r(C)p.r(G)p.r(C)p.r(U)p.r(A)p.r(C)p.r(A)p.r(U)p.r(C)p.r(A)p.r(U)p.r(U)p.r(U)p.d(G)p.d(C)}$$$RNA1{StrandType:ss}|RNA2{StrandType:as}$ , can you help?
Result string: 43.2

Query string: Report normalised inhibition (eCFP-eYFP dual reporter) for RNA1{r(A)p.r(G)p.r(A)p.r(A)p.r(C)p.r(C)p.r(A)p.r(G)p.r(U)p.r(U)p.r(C)p.r(C)p.r(U)p.r(G)p.r(G)p.r(C)p.r(A)p.r(U)p.r(C)p.d(T)p.d(T)}|RNA2{r(G)p.r(A)p.r(U)p.r(G)p.r(C)p.r(C)p.r(A)p.r(G)p.r(G)p.r(A)p.r(A)p.r(C)p.r(U)p.r(G)p.r(G)p.r(U)p.r(U)p.r(C)p.r(U)p.d(G)p.d(C)}$$$RNA1{StrandType:ss}|RNA2{StrandType:as}$ please.
Result string: 60.7

Query string: Return reported normalised inhibition (eCFP-eYFP dual reporter); argument: RNA1{r(G)p.r(A)p.r(A)p.r(A)p.r(C)p.r(A)p.r(G)p.r(C)p.r(U)p.r(A)p.r(G)p.r(A)p.r(G)p.r(C)p.r(A)p.r(U)p.r(G)p.r(G)p.r(A)p.d(T)p.d(T)}|RNA2{r(U)p.r(C)p.r(C)p.r(A)p.r(U)p.r(G)p.r(C)p.r(U)p.r(C)p.r(U)p.r(A)p.r(G)p.r(C)p.r(U)p.r(G)p.r(U)p.r(U)p.r(U)p.r(C)p.d(T)p.d(A)}$$$RNA1{StrandType:ss}|RNA2{StrandType:as}$
Result string: 100

Query string: Request the reported normalised inhibition (eCFP-eYFP dual reporter) associated with RNA1{r(A)p.r(C)p.r(G)p.r(C)p.r(C)p.r(C)p.r(G)p.r(U)p.r(U)p.r(A)p.r(U)p.r(U)p.r(U)p.r(U)p.r(C)p.r(A)p.r(U)p.r(G)p.r(U)p.d(T)p.d(T)}|RNA2{r(A)p.r(C)p.r(A)p.r(U)p.r(G)p.r(A)p.r(A)p.r(A)p.r(A)p.r(U)p.r(A)p.r(A)p.r(C)p.r(G)p.r(G)p.r(G)p.r(C)p.r(G)p.r(U)p.d(T)p.d(G)}$$$RNA1{StrandType:ss}|RNA2{StrandType:as}$
Result string: 62.4

Query string: Name the reported normalised inhibition (eCFP-eYFP dual reporter) value associated with the substance RNA1{r(C)p.r(U)p.r(C)p.r(C)p.r(C)p.r(A)p.r(A)p.r(U)p.r(C)p.r(C)p.r(A)p.r(G)p.r(A)p.r(U)p.r(G)p.r(A)p.r(U)p.r(C)p.r(C)p.d(T)p.d(T)}|RNA2{r(G)p.r(G)p.r(A)p.r(U)p.r(C)p.r(A)p.r(U)p.r(C)p.r(U)p.r(G)p.r(G)p.r(A)p.r(U)p.r(U)p.r(G)p.r(G)p.r(G)p.r(A)p.r(G)p.d(C)p.d(A)}$$$RNA1{StrandType:ss}|RNA2{StrandType:as}$
Result string: 58.7
